Molecular target: CDK2/Cyclin E1 full length (Homo sapiens (Human))
Experiment: CDK2/Cyclin E1 full length mobility shift assay
Please provide measured log10(Ki) for the entries that follow.
# log10 transformed; quantity=Ki; unit=nM

// solved cases for log10(Ki) follow
{"COMPOUND": "CC[C@H](C)NC(=O)O[C@@H]1CC[C@H](c2cc(NC(=O)Cc3ccccc3)n[nH]2)C1", "ASSAY TARGET": "CDK2/Cyclin E1 full length (Homo sapiens (Human))", "log10(Ki)": -0.74}
{"COMPOUND": "COCc1cc(C(=O)Nc2cc([C@H]3CC[C@@H](OC(=O)NC4(C)CCOC4)C3)[nH]n2)n(C)n1 (single isomer, unassigned) [Example 487]", "ASSAY TARGET": "CDK2/Cyclin E1 full length (Homo sapiens (Human))", "log10(Ki)": -0.17}
{"COMPOUND": "CC(C)(C)NC(=O)O[C@@H]1CC[C@H](c2cc(NC(=O)Cc3ccon3)n[nH]2)C1", "ASSAY TARGET": "CDK2/Cyclin E1 full length (Homo sapiens (Human))", "log10(Ki)": -0.48}
{"COMPOUND": "CC[C@H](C)NC(=O)O[C@@H]1CC[C@H](c2cc(NC(=O)Cc3ccc(C)cc3S(C)(=O)=O)n[nH]2)C1", "ASSAY TARGET": "CDK2/Cyclin E1 full length (Homo sapiens (Human))", "log10(Ki)": -0.96}
{"COMPOUND": "Cc1cnc(CC(=O)Nc2cc([C@H]3CC[C@@H](OC(=O)NC(C)(C)C)C3)[nH]n2)s1", "ASSAY TARGET": "CDK2/Cyclin E1 full length (Homo sapiens (Human))", "log10(Ki)": -0.48}
{"COMPOUND": "CCC(CO)CNC(=O)O[C@@H]1CC[C@H](c2cc(NC(=O)Cc3cnc(C)o3)n[nH]2)C1 (single isomer, unassigned) [Example 527]", "ASSAY TARGET": "CDK2/Cyclin E1 full length (Homo sapiens (Human))", "log10(Ki)": 0.42}
{"COMPOUND": "Cc1cnc(CC(=O)Nc2cc([C@H]3CC[C@@H](OC(=O)NC4(C)CCOC4)C3)[nH]n2)o1 (single isomer, unassigned) [Example 477]", "ASSAY TARGET": "CDK2/Cyclin E1 full length (Homo sapiens (Human))", "log10(Ki)": 0.02}
{"COMPOUND": "CCCNC(=O)O[C@@H]1CC[C@H](c2cc(NC(=O)c3ccc(OC)nc3)n[nH]2)C1", "ASSAY TARGET": "CDK2/Cyclin E1 full length (Homo sapiens (Human))", "log10(Ki)": 0.57}

Below are 6 compounds. Give each one its log10(Ki).
1. Cc1cnc(CC(=O)Nc2cc([C@H]3CC[C@@H](OC(=O)N4CCC4(C)C)C3)[nH]n2)o1
2. Cc1cc(CC(=O)Nc2cc([C@H]3CC[C@@H](OC(=O)NC(C)(C)C)C3)[nH]n2)no1
3. COc1ccc(CC(=O)Nc2cc([C@H]3CC[C@@H](OC(=O)NC4CCOCC4)C3)[nH]n2)cc1
4. Cc1cnc(CC(=O)Nc2cc([C@H]3CC[C@@H](OC(=O)NC(C)(C)C)C3)[nH]n2)cn1
5. CC(=O)N1CCC(CNC(=O)O[C@H]2CC[C@@H](c3cc(NC(=O)Cc4cc(F)cc(F)c4)n[nH]3)C2)CC1
6. COc1ccc(CC(=O)Nc2cc([C@@H]3CC[C@H](OC(=O)N[C@H]4CC[C@@](C)(O)CC4)C3)[nH]n2)cc1

1: -0.60; 2: -0.42; 3: 0.57; 4: -0.59; 5: 0.35; 6: -0.43

Below are 8 compounds. Give each one its log10(Ki).
1. Cc1ncc(CC(=O)Nc2cc([C@H]3CC[C@@H](OC(=O)NC4(C)CCOC4)C3)[nH]n2)s1 (single isomer, unassigned) [Example 482]
2. Cn1cc(CC(=O)Nc2cc([C@H]3CC[C@@H](OC(=O)NC(C)(C)C)C3)[nH]n2)cn1
3. Cc1ccc(C(=O)Nc2cc([C@H]3CC[C@@H](OC(=O)NC(C)CC(F)(F)F)C3)[nH]n2)cn1 (single isomer, unassigned) [Example 69]
4. CC1(NC(=O)O[C@@H]2CC[C@H](c3cc(NC(=O)Cc4cnc(C(F)(F)F)cn4)n[nH]3)C2)CCOC1 (single isomer, unassigned) [Example 494]
5. Cc1ccc(CC(=O)Nc2cc([C@H]3CC[C@@H](OC(=O)NC(C)C(C)(F)F)C3)[nH]n2)cn1 (single isomer, unassigned) [Example 388]
6. Cc1cnc(CC(=O)Nc2cc([C@H]3CC[C@@H](OC(=O)NC4(C)CCOC4)C3)[nH]n2)o1 (single isomer, unassigned) [Example 478]
7. COc1ccc(CC(=O)Nc2cc([C@H]3CC[C@@H](OC(=O)N4C[C@@H](OC)[C@@H]4C)C3)[nH]n2)cn1
8. CC1(C)CCCN1C(=O)O[C@@H]1CC[C@H](c2cc(NC(=O)Cc3cnc4ncnn4c3)n[nH]2)C1

[-0.26, -0.82, 0.63, 0.01, 0.37, 0.05, -0.44, -1.05]

Below are 2 compounds. Give each one its log10(Ki).
1. Cc1ncc(CC(=O)Nc2cc([C@H]3CC[C@@H](OC(=O)N[C@@H]4CCC[C@@H]4C)C3)[nH]n2)o1
2. Cc1cc(CC(=O)Nc2cc([C@H]3CC[C@@H](OC(=O)N4CCC[C@@H]4C)C3)[nH]n2)no1

0.24
0.00

Below are 3 compounds. Give each one its log10(Ki).
1. CCC(NC(=O)O[C@@H]1CC[C@H](c2cc(NC(=O)Cc3cc(C)no3)n[nH]2)C1)C(F)(F)F (single isomer, unassigned) [Example 396]
2. COc1cc(CC(=O)Nc2cc([C@@H]3CC[C@H](OC(=O)NCC4CCN(C(C)=O)CC4)C3)[nH]n2)ccn1
3. C[C@H](NC(=O)O[C@@H]1CC[C@H](c2cc(NC(=O)Cc3ccon3)n[nH]2)C1)C1CC1

1. 0.32
2. 0.42
3. 0.01
